# assaySystem: human BRD4 bromodomain II (Homo sapiens, UniProt O60885)
# Construct: human BRD4 bromodomain II [based on Genbank NM_058243, residues 349-460]; host or cells: E. coli
# procedureText: Bromodomain binding assay (AlphaScreen), BRD4 BDII
# protocolConditions: AlphaScreen assay, Table C2; read-out: BRD4 BDII IC50
pIC50: −log10 of the molar value.
Overview of reported pIC50 across a group of molecules:
readoutName: pIC50

[[record]]
molecule = "CC(=O)Nc1ccc(-c2cccc(-c3ccc4occc4c3)c2O)cc1F"
reported = "< 7.00"

[[record]]
molecule = "CC(=O)Nc1ccc(-c2cccc(-c3cccc(N4CC5CCC4CN5)c3)c2O)cc1F (centres unmarked)"
reported = "7.00 to 8.00"

[[record]]
molecule = "Cn1ccn(-c2ccc(-c3cc(F)cc(-c4cnc(C(F)(F)F)c(N5CCN(C(C)(C)C)CC5)c4)c3O)cc2Cl)c1=O"
reported = "8.00 to 9.00"

[[record]]
molecule = "CC(=O)Nc1ccc(-c2cccc(-c3ccncc3)c2O)cc1F"
reported = "< 7.00"

[[record]]
molecule = "Cn1ccn(-c2ccc(-c3cc(F)cc(-c4ccnc(N5CCNC6(CC6)C5)c4)c3O)cc2Cl)c1=O"
reported = "9.00 to 11.00"

[[record]]
molecule = "CC(=O)NCCOc1ncc(-c2cc(F)cc(-c3ccc(N4CCN(C)C4=O)c(Cl)c3)c2O)cc1N1CCNCC1"
reported = "8.00 to 9.00"

[[record]]
molecule = "O=C1NCCN1c1ccc(-c2cc(F)cc(-c3ccnc(N4CCNCC4)c3)c2O)cc1Cl"
reported = "7.00 to 8.00"

[[record]]
molecule = "CC(=O)Nc1ccc(-c2cccc(-c3ccnnc3)c2O)cc1F"
reported = "7.00 to 8.00"


// provenance: patent US20250179059A1
